experiment: AUC in Wistar Hannover rat at 750 mg/kg, po dosed once daily for 14 days measured on day 14; type: ADME, organism-based; design: dose 750 mg/kg, route oral; settings: plasma
Reported metric: AUC at 336 h (µM·h)
Hi! Could you send only the number? It should be in µM·h, unit omitted.

So, Cc1noc2c(F)c3c(cc12)CC1(C(=O)NC(=O)NC1=O)[C@H]1[C@H](C)O[C@H](C)CN31 ? Its AUC at 336 h was 4600

----------
tested on: Escherichia coli; experiment: Antimicrobial activity against Escherichia coli by broth microdilution method; assay type: functional
MIC values, listed per item
Hi! Could you send only the number? It should be in µM, unit omitted.

So, O=C(O)c1cn(C2CC2)c2cc(N3CCNCC3)c(F)cc2c1=O ? Its MIC was 0.06

So, COc1noc2c(F)c3c(cc12)CC1(C(=O)NC(=O)NC1=O)[C@H]1[C@H](C)O[C@H](C)CN31 ? Its MIC was 200

So, Cc1noc2c(Cl)c3c(cc12)CC1(C(=O)NC(=O)NC1=O)C1C(C)OC(C)CN31 (racemic) ? Its MIC was 200

So, C[C@@H]1CN2c3c(cc4c(N)noc4c3F)CC3(C(=O)NC(=O)NC3=O)[C@H]2[C@H](C)O1 ? Its MIC was 100

So, COCc1noc2c(F)c3c(cc12)CC1(C(=O)NC(=O)NC1=O)C1C(C)OC(C)CN31 (racemic) ? Its MIC was 200

So, C[C@@H]1CN2c3c(cc4c(C(F)(F)F)noc4c3F)CC3(C(=O)NC(=O)NC3=O)[C@H]2[C@H](C)O1 ? Its MIC was 25

----------
log10 IC50 values, listed per item
molecular target: DNA gyrase (Escherichia coli, UniProt P0AES4+P0AES6); experiment: Inhibition of Escherichia coli DNA gyrase using fluorescence-tagged DNA by fluorescenct polarization assay; format: protein-complex assay
Use the decimal logarithm of IC50 (nM).

Previously resolved entries follow.
Compound: Cc1noc2c(F)c3c(cc12)CC1(C(=O)NC(=O)NC1=O)C1C(C)OC(C)CN31 (racemic)
log10 IC50: 2.58
//
Compound: Cc1noc2c(F)c3c(cc12)CC1(C(=O)NC(=O)NC1=O)C1C(C)CC(C)CN31 (racemic)
log10 IC50: 2.53
//
Compound: C[C@@H]1CN2c3c(cc4c(N)noc4c3F)CC3(C(=O)NC(=O)NC3=O)[C@H]2[C@H](C)O1
log10 IC50: 2.41

So, Cc1noc2c(Cl)c3c(cc12)CC1(C(=O)NC(=O)NC1=O)C1C(C)OC(C)CN31 (racemic) ? Its log10 IC50 was 2.57

So, COCc1noc2c(F)c3c(cc12)CC1(C(=O)NC(=O)NC1=O)C1C(C)OC(C)CN31 (racemic) ? Its log10 IC50 was 3.20

So, Cc1noc2c(F)c3c(cc12)CC1(C(=O)NC(=O)NC1=O)[C@@H]1[C@@H](C)O[C@H](C)CN31 ? Its log10 IC50 was 4.11

So, COc1noc2c(F)c3c(cc12)CC1(C(=O)NC(=O)NC1=O)[C@H]1[C@H](C)O[C@H](C)CN31 ? Its log10 IC50 was 2.99

So, C[C@@H]1CN2c3c(cc4c(C(F)(F)F)noc4c3F)CC3(C(=O)NC(=O)NC3=O)[C@H]2[C@H](C)O1 ? Its log10 IC50 was 2.79

So, C[C@@H]1CN2c3c(cc4c(Cl)noc4c3F)CC3(C(=O)NC(=O)NC3=O)[C@H]2[C@H](C)O1 ? Its log10 IC50 was 2.32

So, C[C@@H]1CN2c3c(cc4c(C(F)F)noc4c3F)CC3(C(=O)NC(=O)NC3=O)[C@H]2[C@H](C)O1 ? Its log10 IC50 was 2.68

----------
target: UniProt P11388; assay: Inhibition of human topoisomerase 2alpha
Sequence (P11388 whole entry): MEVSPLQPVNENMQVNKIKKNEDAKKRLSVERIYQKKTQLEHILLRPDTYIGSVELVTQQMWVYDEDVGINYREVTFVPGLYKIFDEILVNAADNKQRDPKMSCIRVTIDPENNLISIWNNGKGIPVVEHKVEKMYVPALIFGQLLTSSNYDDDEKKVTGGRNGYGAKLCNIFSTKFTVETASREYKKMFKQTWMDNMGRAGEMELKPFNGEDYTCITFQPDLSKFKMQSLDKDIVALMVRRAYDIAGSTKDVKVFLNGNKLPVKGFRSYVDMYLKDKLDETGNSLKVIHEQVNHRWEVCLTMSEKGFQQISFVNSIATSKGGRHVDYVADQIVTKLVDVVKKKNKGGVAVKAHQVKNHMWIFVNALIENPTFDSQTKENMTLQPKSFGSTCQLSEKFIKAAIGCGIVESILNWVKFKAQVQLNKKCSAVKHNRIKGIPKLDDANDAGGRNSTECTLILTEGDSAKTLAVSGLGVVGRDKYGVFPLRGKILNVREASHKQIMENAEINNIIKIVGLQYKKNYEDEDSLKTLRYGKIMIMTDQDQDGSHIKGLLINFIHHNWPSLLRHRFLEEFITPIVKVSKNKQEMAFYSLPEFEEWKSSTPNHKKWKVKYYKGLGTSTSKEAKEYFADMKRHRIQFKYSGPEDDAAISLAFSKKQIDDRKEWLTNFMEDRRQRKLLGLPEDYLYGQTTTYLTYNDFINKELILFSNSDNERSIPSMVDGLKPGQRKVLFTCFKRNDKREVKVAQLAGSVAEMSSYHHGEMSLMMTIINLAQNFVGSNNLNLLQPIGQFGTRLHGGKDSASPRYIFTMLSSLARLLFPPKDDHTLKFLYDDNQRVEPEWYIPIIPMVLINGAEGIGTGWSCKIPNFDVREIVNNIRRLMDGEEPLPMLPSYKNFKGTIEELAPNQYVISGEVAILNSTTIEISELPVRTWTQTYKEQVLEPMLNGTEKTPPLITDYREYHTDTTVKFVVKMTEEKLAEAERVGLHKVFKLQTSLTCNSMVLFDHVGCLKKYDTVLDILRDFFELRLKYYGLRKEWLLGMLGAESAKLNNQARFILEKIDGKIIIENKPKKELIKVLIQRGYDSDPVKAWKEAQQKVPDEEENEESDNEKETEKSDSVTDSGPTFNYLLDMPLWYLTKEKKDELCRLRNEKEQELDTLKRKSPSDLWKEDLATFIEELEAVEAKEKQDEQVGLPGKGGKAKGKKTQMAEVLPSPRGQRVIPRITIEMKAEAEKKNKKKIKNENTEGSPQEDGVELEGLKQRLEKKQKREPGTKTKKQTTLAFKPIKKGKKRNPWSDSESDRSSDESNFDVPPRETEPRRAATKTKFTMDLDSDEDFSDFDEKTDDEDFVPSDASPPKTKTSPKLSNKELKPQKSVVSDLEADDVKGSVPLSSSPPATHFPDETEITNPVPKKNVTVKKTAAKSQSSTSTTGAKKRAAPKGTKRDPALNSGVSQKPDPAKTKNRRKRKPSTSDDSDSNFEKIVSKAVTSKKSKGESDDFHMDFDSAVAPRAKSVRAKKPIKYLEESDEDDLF
Reported metric: IC50 (µM)
Hi! Could you send only the number? It should be in µM, unit omitted.

IC50 on UniProt P11388 for Cc1noc2c(F)c3c(cc12)CC1(C(=O)NC(=O)NC1=O)[C@H]1[C@H](C)O[C@H](C)CN31 is 50

----------
test: Cmax in Wistar Hannover rat at 750 mg/kg, po dosed once daily for 14 days measured on day 14; format: ADME, organism-based; set-up: dose 750 mg/kg, route oral; details: in vivo
Reported metric: Cmax (µM)
Hi! Could you send only the number? It should be in µM, unit omitted.

So, Cc1noc2c(F)c3c(cc12)CC1(C(=O)NC(=O)NC1=O)[C@H]1[C@H](C)O[C@H](C)CN31 ? Its Cmax was 487

----------
pIC50 values, listed per item
molecular target: DNA gyrase (Escherichia coli, UniProt P0AES4+P0AES6); experiment: Inhibition of Escherichia coli DNA gyrase using fluorescence-tagged DNA by fluorescenct polarization assay
Schema: pIC50 number; meaning minus log10 of the concentration expressed in molar units.

Compound: Cc1noc2c(F)c3c(cc12)CC1(C(=O)NC(=O)NC1=O)[C@H]1[C@H](C)O[C@@H](C)CN31
Measured number: 4.59

So, CC1CN2c3c(cc4c(C(C)(C)C)noc4c3F)CC3(C(=O)NC(=O)NC3=O)C2C(C)O1 (racemic) ? Its pIC50 was 5.40

So, CC1CN2c3c(cc4c(C5CC5)noc4c3F)CC3(C(=O)NC(=O)NC3=O)C2C(C)O1 (racemic) ? Its pIC50 was 6.47

So, Cc1noc2c(F)c3c(cc12)CC1(C(=O)NC(=O)NC1=O)[C@H]1[C@H](C)O[C@H](C)CN31 ? Its pIC50 was 6.54

----------
test: Cmax in Wistar Hannover rat at 500 mg/kg, po dosed once daily for 14 days measured on day 14; type: ADME, organism-based; parameters: dose 500 mg/kg, route oral; conditions: in vivo
Reported metric: Cmax (µM)
Hi! Could you send only the number? It should be in µM, unit omitted.

So, Cc1noc2c(F)c3c(cc12)CC1(C(=O)NC(=O)NC1=O)[C@H]1[C@H](C)O[C@H](C)CN31 ? Its Cmax was 440

----------
system: Escherichia coli; experiment: Antimicrobial activity against Escherichia coli by broth microdilution method; type: functional
MIC values, listed per item

Previously resolved entries follow.
Molecule: C[C@@H]1CN2c3c(cc4c(C(F)F)noc4c3F)CC3(C(=O)NC(=O)NC3=O)[C@H]2[C@H](C)O1
Measured on: Escherichia coli
MIC: 25 µM
--
Molecule: CC(=O)NC[C@H]1CN(c2ccc(N3CCOCC3)c(F)c2)C(=O)O1
Measured on: Escherichia coli
MIC: > 200 µM
--
Molecule: Cc1noc2c(F)c3c(cc12)CC1(C(=O)NC(=O)NC1=O)C1C(C)CC(C)CN31 (racemic)
Measured on: Escherichia coli
MIC: 50 µM
--
Molecule: Cc1noc2c(F)c3c(cc12)CC1(C(=O)NC(=O)NC1=O)[C@H]1[C@H](C)O[C@@H](C)CN31
Measured on: Escherichia coli
MIC: > 200 µM
--
Molecule: Cc1noc2c(F)c3c(cc12)CC1(C(=O)NC(=O)NC1=O)C1C(C)OC(C)CN31 (racemic)
Measured on: Escherichia coli
MIC: 100 µM
--
Molecule: C[C@@H]1CN2c3c(cc4c(Cl)noc4c3F)CC3(C(=O)NC(=O)NC3=O)[C@H]2[C@H](C)O1
Measured on: Escherichia coli
MIC: 25 µM

So, CC1CN2c3c(cc4c(C5CC5)noc4c3F)CC3(C(=O)NC(=O)NC3=O)C2C(C)O1 (racemic) ? Its MIC was 100 µM

So, Cc1noc2c(F)c3c(cc12)CC1(C(=O)NC(=O)NC1=O)[C@H]1[C@H](C)O[C@H](C)CN31 ? Its MIC was 45 µM

So, CC1CN2c3c(cc4c(C(C)(C)C)noc4c3F)CC3(C(=O)NC(=O)NC3=O)C2C(C)O1 (racemic) ? Its MIC was > 200 µM

----------
assay: Fraction unbound in mouse plasma at 10 uM after 16 hrs by LC-MS/MS analysis; format: ADME, cell-free
fraction unbound at 16 h, 10 µM values, listed per item

Record smiles: Cc1noc2c(F)c3c(cc12)CC1(C(=O)NC(=O)NC1=O)[C@H]1[C@H](C)O[C@H](C)CN31
Result: 0.19
//
Record smiles: C[C@@H]1CN2c3c(cc4c(C(F)F)noc4c3F)CC3(C(=O)NC(=O)NC3=O)[C@H]2[C@H](C)O1
Result: 0.044

// next entry
So, C[C@@H]1CN2c3c(cc4c(C(F)(F)F)noc4c3F)CC3(C(=O)NC(=O)NC3=O)[C@H]2[C@H](C)O1 ? Its fraction unbound at 16 h, 10 µM was 0.078

----------
experiment: Toxicity in po dosed Wistar Hannover rat administered as single dose; format: organism-based; conditions: in vivo
Reported metric: MTD

So, Cc1noc2c(F)c3c(cc12)CC1(C(=O)NC(=O)NC1=O)[C@H]1[C@H](C)O[C@H](C)CN31 ? Its MTD was ≤ 750 mg/kg
